Target: T1, human SIGLEC-9-ECD-Fc recombinant fusion protein (human, UniProt Q9Y336 18-343)
T1 construct: The range starts at residue 1, so it includes the signal peptide; No cleavage site is stated; Secreted from CHOK1SV cells and purified on Protein A; also called Siglec-9-ECD-huFc; S9-ECD-Fc
T1 sequence (Q9Y336 18-343): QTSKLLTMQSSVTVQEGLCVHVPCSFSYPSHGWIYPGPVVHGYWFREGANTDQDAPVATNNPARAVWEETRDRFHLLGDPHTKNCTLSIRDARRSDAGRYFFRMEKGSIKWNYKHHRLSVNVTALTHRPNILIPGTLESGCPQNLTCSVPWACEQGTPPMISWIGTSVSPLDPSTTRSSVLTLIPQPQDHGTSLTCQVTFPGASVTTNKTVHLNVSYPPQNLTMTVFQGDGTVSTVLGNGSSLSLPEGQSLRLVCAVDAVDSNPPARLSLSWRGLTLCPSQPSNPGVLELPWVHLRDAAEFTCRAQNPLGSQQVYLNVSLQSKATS
Assay: BLI (ForteBio Octet Red), SIGLEC-9-ECD-Fc on anti-human Fc sensors, Fab in solution, monovalent
Listed next: entries and their corresponding pKd.
In simple prose, pKd is minus the logarithm base ten of a concentration in moles per litre.

Below, 2 binders whose answers are already recorded.
binder	recordedResult
Tf83 Fab (Fab) chain 1: QVQLVQSGAEVKKPGASVKVSCKASDYTFTDYEMHWVRQAPGQGLEWMGAINPEAGGTDYAQKFQGRVTMTADTSISTAYMELSRLRSDDTAVYYCTRVWLHWGQGTLVTVSS chain 2: DIVMTQSPDSLAVSLGERVTMNCKSSQSVLYSSNQKNYLAWYQQKPGQPPKMLIYWASTRESGVPDRFSGSGSGTDFTLTISSLQAEDVAVYYCHQYLSSNTFGQGTKLEIK	8.00
Tf71 Fab (Fab) chain 1: QVQLVQSGAEVKKPGASVKVSCKASGYTFTDYEMHWVRQAPGQGLEWMGAIDPEAGGTDYAQKFQGRVTMTADTSISTAYMELSRLRSDDTAVYYCTRVWLHWGQGTLVTVSS chain 2: DIVMTQSPDSLAVSLGERVTMNCKSSQSVLYSSNQKNYLAWYQQKPGQPPKMLIYWASTRESGVPDRFSGSGSGTDFTLTISSLQAEDVAVYYCHQYLSSNTFGQGTKLEIK	9.27

Query Tf84 Fab (Fab) chain 1: QVQLVQSGAEVKKPGASVKVSCKASDYTFTDYEMHWVRQAPGQGLEWMGAINPESGGTDYAQKFQGRVTMTADTSISTAYMELSRLRSDDTAVYYCTRVWLHWGQGTLVTVSS chain 2: DIVMTQSPDSLAVSLGERVTMNCKSSQSVLYSSNQKNYLAWYQQKPGQPPKMLIYWASTRESGVPDRFSGSGSGTDFTLTISSLQAEDVAVYYCHQYLSSNTFGQGTKLEIK yields pKd of 8.65

Query Tf73 Fab (Fab, V domains shown, also called AK643-3 / AK628-1) VH: QVQLVQSGAEVKKPGASVKVSCKASDYTFTGYEMHWVRQAPGQGLEWMGAIDPEAGGTDYAQKFQGRVTMTADTSISTAYMELSRLRSDDTAVYYCTRVWLHWGQGTLVTVSS VL: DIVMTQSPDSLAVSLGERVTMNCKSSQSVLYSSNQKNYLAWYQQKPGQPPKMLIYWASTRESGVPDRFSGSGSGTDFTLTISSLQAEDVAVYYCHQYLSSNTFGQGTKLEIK yields pKd of 9.24
